Assay: gradient 5% acetonitrile 3 min, to 50% in 2 min, to 85% in 15 min, held 3 min, 100 µL/min
Settings: column: Zorbax Extend-C18 2.1 x 50 mm; eluents: water / acetonitrile, 0.1% formic acid
Please use Satisfied for RP-LC retention time under 800 s and Not satisfied for everything else, ties included.

Cc1cc(C(=O)Nc2cccn3c(C4CCC4)nnc23)no1 ... Satisfied
Cc1ccc(CNC(=O)c2ccc(Cn3nc(N4CCN(c5ccccc5)CC4)ccc3=O)o2)o1 ... Satisfied
CC(=O)c1ccc(S(=O)(=O)N2CCC[C@@H]2C(=O)NCc2csc(C)n2)cc1 ... Satisfied
Cc1cccc(-n2ncc(C(N)=O)c2-n2cccc2)c1 ... Satisfied
O=C(Nc1ccc(F)cc1F)C1CCN(S(=O)(=O)c2cc(-c3noc(C4CC4)n3)cs2)CC1 ... Not satisfied
CCCn1c(=O)c(C)nc2cc(-c3noc(C4CC(=O)N(c5ccc(C)cc5)C4)n3)ccc21 (stereo unspecified) ... Not satisfied
O=C(O)CCC(=O)Nc1ccccc1Cl ... Satisfied
O=C(Nc1nc(CC(=O)N2CCN(C(=O)C3CCCO3)CC2)cs1)c1ccsc1 (stereo unspecified) ... Satisfied
COc1cc(C(=O)N2CCN(c3c(C)n(C)c(=O)n(C)c3=O)CC2)cc(OC)c1OC ... Satisfied
O=C1OC(c2ccccc2)=N/C1=C\c1ccc(N(CCCl)CCCl)cc1 ... Not satisfied

Alright, here's another compound for you.
Could you please tell me whether RP-LC retention time recorded for Cc1c(Cl)cccc1NC(=O)C(C)C1CCN(C(=O)Nc2ccccc2)CC1 (stereo unspecified) is less than 800 s?
Not satisfied

====

Documented RP-LC retention time across a set of compounds
Assay: gradient 5% acetonitrile 3 min, to 50% in 2 min, to 85% in 15 min, held 3 min, 100 µL/min
Details: column: Zorbax Extend-C18 2.1 x 50 mm; eluents: water / acetonitrile, 0.1% formic acid

CCCS(=O)(=O)NCc1ccc2c(c1)CCN2C(=O)c1ccccc1 ... 810 s

In plain terms, "Cc1csc(-c2ccc(N3CCN(C(=O)c4cccc5[nH]ccc45)CC3)nc2)n1" has a documented RP-LC retention time of 756 s

"O=C(NCCc1ccccc1)N1CCN(c2cnn3cnnc3c2)CC1" has a reported RP-LC retention time of 615 s

Notebook: CCC(c1ccccc1)c1nc(-c2ccc3nnn(C)c3c2)no1 (stereo not given) , RP-LC retention time read as 1100 s

For reference, reported RP-LC retention time for "Cc1ccc(NC(=O)C2CCN(S(=O)(=O)c3ccc4c(c3)sc(=O)n4C)CC2)nc1" stands at 697 s

get_value(item= "O=C(NCc1noc(CCc2ccccc2)n1)c1ccc(-c2noc(C3CC3)n2)cc1" , readout=RP-LC retention time) returns 977 s

Entry CCC(C)n1c(=O)c2ccccc2n(Cc2nc(-c3ccccc3)no2)c1=O (stereo not given) , RP-LC retention time reported as 1190 s

Record COc1ccc(NC(=O)C2CCc3sc(C(=O)N4CCCC4)cc3C2)cc1OC (stereo not given) . Reported RP-LC retention time: 680 s

# RP-LC retention time (compound: "O=S(=O)(Nc1ccccc1)c1cccnc1Nc1ccc(F)cc1" ) is 1020 s

// recorded RP-LC retention time for "COc1ccccc1CNc1c(-c2ccc(OC(C)C)cc2)nc2ncccn12" : 826 s

So, "O=C(Nc1ccccc1-c1nc2ccccc2s1)c1ccno1" ? Its RP-LC retention time was 728 s

====

Entries and their RP-LC retention time values follow.
Test: gradient 5% acetonitrile 3 min, to 50% in 2 min, to 85% in 15 min, held 3 min, 100 µL/min
Conditions: column: Zorbax Extend-C18 2.1 x 50 mm; eluents: water / acetonitrile, 0.1% formic acid
Report only the number, with the unit s understood.

O=C(NC(c1ccccc1)c1nnc(N2CCCC2)o1)c1ccccc1Cl (centres undefined) ... 867
Cc1ccc(S(=O)(=O)N2CCCC(C(=O)Nc3cc(-c4nc(C)cs4)sc3C)C2)cc1 (centres undefined) ... 1060
O=C(NCc1ccccn1)C1CCN(c2ncnc3c2oc2ccccc23)CC1 ... 593

Please find the next molecule below.
Kindly note the recorded RP-LC retention time for "CCn1cc(C(=O)Nc2ccc(C)cc2C)c2cccnc21" , which is 962

====

Assay: gradient 5% acetonitrile 3 min, to 50% in 2 min, to 85% in 15 min, held 3 min, 100 µL/min
Conditions: column: Zorbax Extend-C18 2.1 x 50 mm; eluents: water / acetonitrile, 0.1% formic acid
The following molecules are listed with their measured RP-LC retention time values.
Kindly answer with a numeric value in s, unit omitted.

Noted for "COCC(=O)N(C1CCOCC1)C1CCN(S(=O)(=O)c2ccc(F)c(F)c2)CC1" : its RP-LC retention time reads 788

Lab note: measured RP-LC retention time of Cc1ccc(C2NC(=O)c3ccccc3N2)s1 (stereo unspecified) was 705

Form: molecule = "O=C(NCCC1CCN(C(=O)Nc2ccccc2F)CC1)c1ccco1" ; RP-LC retention time = 1170

Value of RP-LC retention time reported for the molecule "CCc1cccc(N2C=C(C(=O)N3CCOCC3)S(=O)(=O)c3ccc(F)cc32)c1" is 858

The recorded RP-LC retention time for entry "Cc1c(C(=O)N2CCOCC2)sc2nc(-c3cccc(F)c3)c(NC3CCCC3)n12" equals 859

====

Test: gradient 5% acetonitrile 3 min, to 50% in 2 min, to 85% in 15 min, held 3 min, 100 µL/min
Conditions: column: Zorbax Extend-C18 2.1 x 50 mm; eluents: water / acetonitrile, 0.1% formic acid
Lab note - cut at 800 s for RP-LC retention time: Y if strictly below, N if not.

Solved entries (count: 8):
CCCc1cc(N2CCN(c3ccccn3)CC2)n2nc(C)c(-c3ccccc3)c2n1 ... Y
CC(=O)OCCNc1nc(-c2ccccc2)nc2ccccc12 ... Y
COc1ccc(C2(C(=O)N3CC(c4nc(CCOCc5ccccc5)no4)C3)CC2)cc1 ... N
Cc1c(C(=O)NCCCN2CCOCC2)sc2ncnc(N3CCN(c4ccccn4)CC3)c12 ... Y
CCN1C(=O)C2CC3(CCN(Cc4cn(C)c5ccc(OC)cc45)CC3)CN2C1=O (stereo not given) ... Y
O=C(Nc1ccc(Cl)cc1)Nc1cccn2ncnc12 ... N
CCCCC(=O)Nc1nc(-c2ccc(C)cc2C)cs1 ... N
O=C(Nc1ccc2c(c1)OCCO2)c1c(O)c2cccnc2n(-c2ccccc2)c1=O ... N

Does the reported RP-LC retention time of "CN1CCN(CCNC(=O)c2cnn3c4c(cnc23)CCCCCC4)CC1" stay below 800 s?
Y

Input "OC[C@@H]1CN(Cc2ccc(OC(F)(F)F)cc2)C[C@H]1c1ccncc1" ; condition: RP-LC retention time strictly below 800 s. Does it hold?
Y

Answer whether the molecule "O=C(Cc1c[nH]c2ncccc12)NCc1ccc(C(F)(F)F)cc1" has RP-LC retention time strictly less than 800 s
Y

Item "O=C(Nc1ccc2c(c1)OCCO2)c1cc(-c2ccccn2)n[nH]1" : RP-LC retention time beneath 800 s, strictly?
Y

Would you kindly verify if RP-LC retention time of "Cc1c(C(=O)C(=O)Nc2ccc(C(N)=O)cc2)c2ccccc2n1C" is strictly less than 800 s?
Y

Decide: RP-LC retention time of "CCc1ccc(C(=O)Nc2nnc(SCc3nnc(-c4ccccc4C)o3)s2)cc1" strictly below 800 s?
N

Input NC(=O)c1ccc(OCC(O)CN2CC=C(c3ccc(F)cc3)CC2)cc1 (stereo not given) ; condition: RP-LC retention time strictly below 800 s. Does it hold?
Y

====

Item-by-item account of RP-LC retention time
Assay: gradient 5% acetonitrile 3 min, to 50% in 2 min, to 85% in 15 min, held 3 min, 100 µL/min
Details: column: Zorbax Extend-C18 2.1 x 50 mm; eluents: water / acetonitrile, 0.1% formic acid
// note: answer is a bare numeric in s

Worked examples follow.
Cc1cccc(NS(=O)(=O)c2cc3n(c2)CCN(C(C)C)C3=O)c1C ... 816
COc1ccccc1-c1cc(C(=O)N2CCN(c3ccc(=O)n(-c4ccc(F)cc4)n3)CC2)[nH]n1 ... 789
NC(=O)CSc1nc(-c2ccccc2)c(NC(=O)c2cc3ccccc3o2)s1 ... 797
CCOC(=O)c1noc2ncnc(N3CCc4cc(OC)c(OC)cc4C3C)c12 (stereo unspecified) ... 1000
CCNC(=O)c1nc(C(=O)NC(C)C)cs1 ... 656

Recorded result, "COc1cccc(Cn2cc(S(=O)(=O)N3CCCC3)ccc2=O)c1" , RP-LC retention time: 779

The reported RP-LC retention time of the compound "CCCn1c(=O)sc2cc(S(=O)(=O)N3CCC(C(=O)N4CCN(CC)CC4)CC3)ccc21" was 640

Recorded RP-LC retention time (compound "O=C1CCCc2cc(S(=O)(=O)NCC3CCN(Cc4cccc(F)c4)CC3)ccc2N1" ): 606

Record "Cc1cccc(N2CCN(S(=O)(=O)c3cc(-c4cc(C(F)(F)F)on4)cs3)CC2)c1C" . Reported RP-LC retention time: 1420

Summary for this compound, "CCCCn1nnc(NCc2ccc(-c3cccc(Cl)c3)o2)n1" : RP-LC retention time is 1150

RP-LC retention time in this record for "COc1ccc(Nc2cc(C(=O)N3CCC(C)CC3)nc3cc(OC)c(OC)cc23)cc1Cl" : 778

Reported RP-LC retention time of "O=C(CN1CCN(Cc2ccccc2)C(=O)C1=O)N1CCN(c2ccccc2F)CC1" : 752

Form: compound = "O=S(=O)(c1cccn2c(SCc3ccc(F)cc3Cl)nnc12)N1CCCCC1" ; RP-LC retention time = 879

RP-LC retention time measured on "Cc1ccc(CNC(=O)C2(C)CCN(S(=O)(=O)c3ccc(Br)s3)CC2)cc1" = 1050

Entry source: the METLIN SMRT retention time set (Domingo-Almenara et al. 2019)
